# target.entity: Galanin receptor type 3 (Homo sapiens, UniProt O60755)
endpoint.label: Ki (µM)
Give bare numbers, in µM.

// sample H-GWTLNSAGYLLGPPPALALA-NH2 [M40] , its Ki was 0.288

----------
# target.entity: Galanin receptor type 3 (Homo sapiens)
# Sequence (O60755 whole entry): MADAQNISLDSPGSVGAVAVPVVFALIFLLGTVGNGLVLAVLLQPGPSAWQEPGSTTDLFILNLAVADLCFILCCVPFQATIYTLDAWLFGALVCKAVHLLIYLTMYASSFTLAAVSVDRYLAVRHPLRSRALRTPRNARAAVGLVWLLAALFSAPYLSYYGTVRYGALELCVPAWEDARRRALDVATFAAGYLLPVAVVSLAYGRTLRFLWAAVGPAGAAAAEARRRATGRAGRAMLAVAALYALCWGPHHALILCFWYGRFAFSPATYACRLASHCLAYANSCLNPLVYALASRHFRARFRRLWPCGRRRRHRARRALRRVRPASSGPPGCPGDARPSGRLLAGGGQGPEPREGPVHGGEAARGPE
endpoint.label: pKi
Numbers only, as −log10 of the molar value.

1. CC(C)C[C@H](NC(=O)[C@H](CC(C)C)NC(=O)[C@H](Cc1ccc(O)cc1)NC(=O)CNC(=O)[C@H](C)NC(=O)[C@H](CO)NC(=O)[C@H](CC(N)=O)NC(=O)[C@H](CC(C)C)NC(=O)[C@@H](NC(=O)[C@H](Cc1c[nH]c2ccccc12)NC(=O)CN)[C@@H](C)O)C(=O)NCC(=O)N1CCC[C@H]1C(=O)N1CCC[C@H]1C(=O)N1CCC[C@H]1C(=O)NCC(=O)N[C@@H](Cc1ccccc1)C(=O)N[C@@H](CO)C(=O)N1CCC[C@H]1C(=O)N[C@@H](Cc1ccccc1)C(=O)N[C@@H](CCCN=C(N)N)C(N)=O ... 7.84

Note: attention shifts to another entry.
// sample `COc1ccccc1N(CCOc1ccc(C)cc1)C(=O)CN1CCCCC1` , its pKi was 7.40
